List of log2 fold change of degron read counts values.
study_target: T1, CRBN, Q96SW2;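 further: pooled lentiviral library of zinc finger degron-EGFP fusions in mCherry-positive Jurkat cells, FACS-sorted after compound exposure, with degron abundance counted by next-generation sequencing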
T1 chain: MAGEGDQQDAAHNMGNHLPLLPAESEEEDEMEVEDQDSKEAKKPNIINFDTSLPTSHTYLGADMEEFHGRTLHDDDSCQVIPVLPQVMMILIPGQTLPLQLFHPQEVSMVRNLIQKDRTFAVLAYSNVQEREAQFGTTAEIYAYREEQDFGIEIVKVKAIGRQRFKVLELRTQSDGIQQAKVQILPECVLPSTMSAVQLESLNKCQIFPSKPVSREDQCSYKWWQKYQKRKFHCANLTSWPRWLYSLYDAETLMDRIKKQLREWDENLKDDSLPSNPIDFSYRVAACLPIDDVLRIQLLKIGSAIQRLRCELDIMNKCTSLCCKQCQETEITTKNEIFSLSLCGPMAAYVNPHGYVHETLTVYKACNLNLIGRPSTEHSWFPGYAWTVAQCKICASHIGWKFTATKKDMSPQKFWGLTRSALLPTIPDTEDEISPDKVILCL
method_summary: log2 fold change of degron read counts, EGFP-low vs EGFP+ sorted cells (limma voom), compound-induced degradation; higher = more compound-induced degradation of the degron-EGFP fusion; degrons are variants of IKZF1/3 zinc finger 2; compound dose not given here
condition_parameters: Jurkat; 18 h; compound: compound 19 (5-tert-butyl-thalidomide)
Over roughly 8,300 sequences, “log2 fold change of degron read counts, EGFP-low vs EGFP+ sorted cells (limma voom), compound-induced degradation” has its median near -1.1; the highest 2% begin near 3.2. Only a selection was taken, and the highest values are over-represented in it overall.
Reply: number alone, nothing else.

LWCPICGFACTQKGNLLRHIKL [46L_47W_49P_50I_52G_53F_54A_55C_67L_, Q9UKT9] :: 2.95
FMCEQCGASFTQKGNLLRHIKL [46F_47M_49E_50Q_52G_53A_54S_55F_67L_, Q9UKT9] :: -1.6
FCCEQCGANFTQKGNLLRHIKL [46F_47C_49E_50Q_52G_53A_54N_55F_67L_, Q9UKT9] :: -1.5

Query sequence follows.
Using the record for FWCNQCGRSFTQKGNLLRHIKL [46F_47W_49N_50Q_52G_53R_54S_55F_67L_, Q9UKT9] , report its log2 fold change of degron read counts. -1.96
